Kindly supply the reported EC90 values for the records listed here.
- Target Under Test: Core antigen (Hepatitis B virus)
- Experiment: Modulation of capsid assembly in HBV infected in human HePAD38 cells assessed as inhibition of viral DNA replication measured after 96 hrs by qPCR analysis
- Type: cell-based
- Condition Summary: filed as modulator
The response must be a number in µM with no trailing unit.

Task item: Answer with the recorded EC90 for the molecule listed here: "Nc1cc(Br)c(C(=O)Nc2cc(F)c(F)c(F)c2)cc1S(N)(=O)=O"
Reply: 2.78

Task item: Answer with the recorded EC90 for the molecule listed here: "Nc1ccc(C(=O)Nc2ccc(F)c(C(F)F)c2)cc1S(N)(=O)=O"
Reply: 0.48

Task item: Answer with the recorded EC90 for the molecule listed here: "Cc1cc(N)c(S(N)(=O)=O)cc1C(=O)Nc1ccc(F)c(C#N)c1"
Reply: 1.21

Task item: Answer with the recorded EC90 for the molecule listed here: "Nc1cc(Cl)c(C(=O)Nc2cc(F)c(F)c(F)c2)cc1S(N)(=O)=O"
Reply: 1.24

Task item: Answer with the recorded EC90 for the molecule listed here: "Nc1ccc(C(=O)Nc2ccc(F)c(Cl)c2)cc1S(N)(=O)=O"
Reply: 0.36

Task item: Answer with the recorded EC90 for the molecule listed here: "Cc1cc(NC(=O)c2ccc(N)c(S(N)(=O)=O)c2)ccc1F"
Reply: 0.7

Task item: Answer with the recorded EC90 for the molecule listed here: "Cc1cc(NC(=O)c2cc(S(N)(=O)=O)c(N)cc2C)ccc1F"
Reply: 0.39

Task item: Answer with the recorded EC90 for the molecule listed here: "Nc1ccc(C(=O)Nc2ccc(F)c(C(F)(F)F)c2)cc1S(N)(=O)=O"
Reply: 3.65

Task item: Answer with the recorded EC90 for the molecule listed here: "O=C(Nc1cc(F)c(F)c(F)c1)c1ccc(F)c(S(=O)(=O)N2CCC(O)CC2)c1"
Reply: 1.13

Task item: Answer with the recorded EC90 for the molecule listed here: "CNc1ccc(C(=O)Nc2cc(F)c(F)c(F)c2)cc1S(N)(=O)=O"
Reply: 20.9

Task item: Answer with the recorded EC90 for the molecule listed here: "Cc1cc(N)c(S(N)(=O)=O)cc1C(=O)Nc1cc(F)c(F)c(F)c1"
Reply: 0.26

Task item: Answer with the recorded EC90 for the molecule listed here: "Cc1cc(N)c(S(N)(=O)=O)cc1C(=O)Nc1ccc(F)c(C(F)F)c1"
Reply: 0.66

Task item: Answer with the recorded EC90 for the molecule listed here: "Nc1cc(F)c(C(=O)Nc2cc(F)c(F)c(F)c2)cc1S(N)(=O)=O"
Reply: 1.09

Task item: Answer with the recorded EC90 for the molecule listed here: "Cc1cc(N)c(S(N)(=O)=O)cc1C(=O)Nc1ccc(F)c(C(F)(F)F)c1"
Reply: 2.63

Task item: Answer with the recorded EC90 for the molecule listed here: "Cc1cc(C(=O)Nc2cc(F)c(F)c(F)c2)cc(S(N)(=O)=O)c1N"
Reply: 1.54

Task item: Answer with the recorded EC90 for the molecule listed here: "NS(=O)(=O)c1cc(C(=O)Nc2cc(F)c(F)c(F)c2)ccc1F"
Reply: 8.13

Task item: Answer with the recorded EC90 for the molecule listed here: "Nc1ccc(C(=O)Nc2cc(F)c(F)c(F)c2)cc1S(N)(=O)=O"
Reply: 0.49

Task item: Answer with the recorded EC90 for the molecule listed here: "N#Cc1cc(NC(=O)c2ccc(N)c(S(N)(=O)=O)c2)ccc1F"
Reply: 2.53

Task item: Answer with the recorded EC90 for the molecule listed here: "Cc1cc(N)c(S(N)(=O)=O)cc1C(=O)Nc1ccc(F)c(Cl)c1"
Reply: 0.39
